- System: Plasmodium falciparum
- experiment.summary: Calibr Malaria Delayed Death Assay SOP
- Format: functional, organism-based
- Parameters: scale not given: in the data most compounds retested in dose-response had high values
- condition.context: concentration 4.99e-06 (unit not given; other assays of the set use mol/L)
Screen size: about 38,000 compounds; about 1,200 (3.2%) showed an effect of 50% or more. The median lay at about -58%. What follows is part of a selection rich in strong results, with near analogues and random picks from the rest.
# Percent Effect annotations
# unit: % | format: bare number

Answered examples (5):
Lab note: need Percent Effect for Cc1cc(N2CCCN(c3ccnc(C)c3)CC2)ccn1 on Plasmodium falciparum, anyone have it?
-92.15

Lab note: need Percent Effect for CN(CCCc1cc(-c2ccc(F)cc2)n[nH]1)C(=O)CCn1cncn1 on Plasmodium falciparum, anyone have it?
-232.6

Lab note: need Percent Effect for Cc1cc(N2CCCN(CCc3ccccc3)CC2)ccn1 on Plasmodium falciparum, anyone have it?
86.4

Lab note: need Percent Effect for COc1cc(N2CC[C@@H]3O[C@@H](C(=O)NCCN(C)C)C[C@@H]32)ncn1 on Plasmodium falciparum, anyone have it?
-52.73

Lab note: need Percent Effect for CC(C)N(CCCNC(=O)C1CCOCC1)S(C)(=O)=O on Plasmodium falciparum, anyone have it?
-53.5

Continuing:
Lab note: need Percent Effect for CCOc1ccc(CN2CCN(C(=O)c3cc(C4CC4)[nH]n3)CC2)cc1 on Plasmodium falciparum, anyone have it?
-17.17

Lab note: need Percent Effect for CC(C)[C@@H]1CN(Cc2ccccn2)C[C@H]1NS(=O)(=O)N(C)C on Plasmodium falciparum, anyone have it?
-49.07

Lab note: need Percent Effect for CS(=O)(=O)N1C[C@@H]2CC[C@H](C1)N(C/C=C/c1ccc(F)cc1)C2 on Plasmodium falciparum, anyone have it?
-47.28

Lab note: need Percent Effect for Cc1cc(NC(=O)NCC2(O)CCCC2)ccn1 on Plasmodium falciparum, anyone have it?
-130.9

Lab note: need Percent Effect for CC(C)[C@@H]1CN(CCOc2ccccc2)C[C@H]1NS(=O)(=O)N(C)C on Plasmodium falciparum, anyone have it?
40.07
